- protocol.notes: Antagonist activity at UT2 receptor in Sprague-Dawley rat thoracic aorta ring assessed as pEC50 for URP -induced aortic contractions at 10^-5M relative to KCl
Where a SMILES comes first, the peptide text is derived from it.
measured.quantity: EC50

Solved entries (count: 3):
{"molecule": "CC(C)[C@H](NC(=O)[C@@H]1CSSC[C@H](NC(=O)[C@@H](N)CC(=O)O)C(=O)N[C@@H](Cc2ccccc2)C(=O)N[C@@H](Cc2c[nH]c3ccccc23)C(=O)NN(CCCCN(C)C)S(=O)(=O)N[C@@H](Cc2ccc(O)cc2)C(=O)N1)C(=O)O (HELM PEPTIDE1{D.C.F.W.[CN(C)CCCCN(N[*:1])S(=O)(=O)N[C@@H](Cc1ccc(O)cc1)C(=O)[*:2]].C.V}$PEPTIDE1,PEPTIDE1,2:R3-6:R3$$$V2.0)", "EC50": "3.7 nM"}
{"molecule": "CC(C)[C@H](NC(=O)[C@@H]1CSSC[C@H](NC(=O)[C@@H](N)CC(=O)O)C(=O)N[C@@H](Cc2ccccc2)C(=O)NN(Cc2ccccc2)S(=O)(=O)N[C@@H](CCCCN)C(=O)N[C@@H](Cc2ccc(O)cc2)C(=O)N1)C(=O)O (HELM PEPTIDE1{D.C.F.[NCCCC[C@H](NS(=O)(=O)N(Cc1ccccc1)N[*:1])C(=O)[*:2]].Y.C.V}$PEPTIDE1,PEPTIDE1,2:R3-6:R3$$$V2.0)", "EC50": "3.5 nM"}
{"molecule": "CC(C)[C@H](NC(=O)[C@@H]1CSSC[C@H](NC(=O)[C@@H](N)CC(=O)O)C(=O)N[C@@H](Cc2ccccc2)C(=O)NN(Cc2cccc3ccccc23)S(=O)(=O)N[C@@H](CCCCN)C(=O)N[C@@H](Cc2ccc(O)cc2)C(=O)N1)C(=O)O", "EC50": "7.9 nM"}

Q) Query: EC50; subject: `CC(C)[C@H](NC(=O)[C@@H]1CSSC[C@H](NC(=O)[C@@H](N)CC(=O)O)C(=O)N[C@@H](Cc2ccccc2)C(=O)NN(Cc2ccc3ccccc3c2)S(=O)(=O)N[C@@H](CCCCN)C(=O)N[C@@H](Cc2ccc(O)cc2)C(=O)N1)C(=O)O`
A) 9.5 nM

---

- protocol.notes: Antagonist activity at UT2 receptor in Sprague-Dawley rat thoracic aorta ring assessed as pEC50 for hU2-induced aortic contractions at 10^-5M relative to KCl
Where a SMILES comes first, the peptide text is derived from it.
Listed next: entries and their corresponding pEC50.
Remember, pEC50 is on a log scale: it is -log10 of the molar concentration.

{"molecule": "CC(C)[C@H](NC(=O)[C@@H]1CSSC[C@H](NC(=O)[C@@H](N)CC(=O)O)C(=O)N[C@@H](Cc2ccccc2)C(=O)N[C@@H](Cc2c[nH]c3ccccc23)C(=O)NN(CCCCN(C)C)S(=O)(=O)N[C@@H](Cc2ccc(O)cc2)C(=O)N1)C(=O)O (HELM PEPTIDE1{D.C.F.W.[CN(C)CCCCN(N[*:1])S(=O)(=O)N[C@@H](Cc1ccc(O)cc1)C(=O)[*:2]].C.V}$PEPTIDE1,PEPTIDE1,2:R3-6:R3$$$V2.0)", "measured.quantity": "pEC50", "value.measured": 8.80}

Q) Recorded pEC50 of `CC(C)[C@H](NC(=O)[C@@H]1CSSC[C@H](NC(=O)[C@@H](N)CC(=O)O)C(=O)N[C@@H](Cc2ccccc2)C(=O)NN(Cc2cccc3ccccc23)S(=O)(=O)N[C@@H](CCCCN)C(=O)N[C@@H](Cc2ccc(O)cc2)C(=O)N1)C(=O)O` , please.
A) 8.30

Q) Fill blank: measured pEC50 of the molecule `CC(C)[C@H](NC(=O)[C@@H]1CSSC[C@H](NC(=O)[C@@H](N)CC(=O)O)C(=O)N[C@@H](Cc2ccccc2)C(=O)NN(Cc2ccc3ccccc3c2)S(=O)(=O)N[C@@H](CCCCN)C(=O)N[C@@H](Cc2ccc(O)cc2)C(=O)N1)C(=O)O` is ____.
A) 7.82

Q) Bench note: what pEC50 did CC(C)[C@H](NC(=O)[C@@H]1CSSC[C@H](NC(=O)[C@@H](N)CC(=O)O)C(=O)N[C@@H](Cc2ccccc2)C(=O)NN(Cc2ccccc2)S(=O)(=O)N[C@@H](CCCCN)C(=O)N[C@@H](Cc2ccc(O)cc2)C(=O)N1)C(=O)O (HELM PEPTIDE1{D.C.F.[NCCCC[C@H](NS(=O)(=O)N(Cc1ccccc1)N[*:1])C(=O)[*:2]].Y.C.V}$PEPTIDE1,PEPTIDE1,2:R3-6:R3$$$V2.0) show?
A) 8.32
